system: CCRF-CEM leukemia; assay: NCI tumour cell line growth inhibition, 48 h; in the data active = GI50 below about 0.43 µM; inactive = the rest
Your response should consist of one outcome taken from YES = active, NO = inactive

Look over these answered cases.
Prompt: Please let me know the test result on file for NCCCNCCCNc1nc2ccccc2c2[nH]c3ccccc3c12 .
Response: YES

Prompt: Please let me know the test result on file for Oc1ccc(-c2nc(-c3ccc(F)cc3)c(-c3ccncc3)[nH]2)cc1 .
Response: NO

Prompt: Please let me know the test result on file for c1ccc(CNc2nc(Nc3ccc(-c4nc5ccccc5[nH]4)cc3)c3cn[nH]c3n2)cc1 .
Response: NO

Prompt: Please let me know the test result on file for COc1cccc(C2C3=C(COC3=O)N(CCO)c3cc4c(cc32)CCC4)c1 (stereo not given) .
Response: YES

Prompt: Please let me know the test result on file for C/C=C(\C)C(=O)O[C@@H]1C=CC(=O)O[C@H]1COC(=O)[C@H](C)O .
Response: NO

Prompt: Please let me know the test result on file for COc1ccc2c(c1)C(=O)/C(=C/c1ccc(OCC(=O)c3ccc(Cl)cc3)cc1)O2 .
Response: NO

Prompt: Please let me know the test result on file for COc1ccc(C2=NN(c3ccc(S(N)(=O)=O)cc3)C(c3ccc(Cl)cc3)C2)c(O)c1 (stereo not given) .
Response: NO

Prompt: Please let me know the test result on file for C=C(CNCCc1ccc(O)cc1)[C@@H]1CC[C@]2(CO)CC[C@]3(C)[C@H](CC[C@@H]4[C@@]5(C)CCC(NCCO)C(C)(C)[C@@H]5CC[C@]43C)[C@@H]12 (stereo not given in full) .
Response: NO

More entries:
Prompt: Please let me know the test result on file for O=C(Nc1ccc(-n2cc(-c3ccncc3)c(-c3ccc(O)c(Cl)c3)n2)cc1)c1ccc(Cl)c(Cl)c1 .
Response: NO

Prompt: Please let me know the test result on file for COc1cc2nc(-c3ccc(Cl)cc3)cc(OCCCN3CCC(O)CC3)c2cc1OC .
Response: NO

Prompt: Please let me know the test result on file for COc1cc2c(c(Br)c1N)-c1cc(Br)c(N)cc1C2=O .
Response: NO

Prompt: Please let me know the test result on file for C#CCSc1nnnn1-c1ccc(Br)c(C)c1 .
Response: NO

Prompt: Please let me know the test result on file for O=[N+]([O-])c1ccc([I+]c2ccccc2)cc1 .
Response: NO

Prompt: Please let me know the test result on file for Cn1cccc1C1CC(=O)N(CCC[Se]C#N)C1=O (stereo not given) .
Response: NO

Prompt: Please let me know the test result on file for C[CH2][Sn]([CH2]C)([O]C(=O)c1cc(OC)c(OC)c(OC)c1)[O][Sn]([CH2]C)([CH2]C)[O]C(=O)c1cc(OC)c(OC)c(OC)c1 .
Response: NO
